system name: purified recombinant human caspase-3 (Homo sapiens, UniProt P42574)
Construct: Active site shared between large and small caspase subunit
Sequence (P42574 29-175 limits assumed): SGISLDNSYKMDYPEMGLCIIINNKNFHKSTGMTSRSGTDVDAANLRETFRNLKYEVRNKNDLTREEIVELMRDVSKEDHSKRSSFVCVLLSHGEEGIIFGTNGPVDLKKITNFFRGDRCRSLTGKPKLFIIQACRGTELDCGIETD
Sequence (P42574 176-277 limits assumed): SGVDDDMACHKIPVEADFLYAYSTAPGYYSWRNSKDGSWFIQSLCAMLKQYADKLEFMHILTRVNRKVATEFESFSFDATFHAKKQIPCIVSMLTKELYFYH
assay: Caspase inhibitor titration by [125I]-M808 labeling of purified recombinant human caspase-3 (SDS-PAGE)
Type: binding
cond: incubating with [125I]-M808 for 60 minutes instead of 5; read-out: apparent IC50 by [125I]-M808 labeling
property: pIC50
pIC50 is defined as minus the log10 of a concentration measured in mol/L.

# returns recorded pIC50 (system: purified recombinant human caspase-3 (Homo sapiens, UniProt P42574)) for COc1ccc(-c2nc(C)no2)cc1CC(=O)N[C@H](C(=O)N[C@@H](CC(=O)O)C(=O)CSCc1ccccc1)C(C)C 9.00
